molecular target: hSIK (Homo sapiens, UniProt P57059)
Sequence (P57059 whole entry): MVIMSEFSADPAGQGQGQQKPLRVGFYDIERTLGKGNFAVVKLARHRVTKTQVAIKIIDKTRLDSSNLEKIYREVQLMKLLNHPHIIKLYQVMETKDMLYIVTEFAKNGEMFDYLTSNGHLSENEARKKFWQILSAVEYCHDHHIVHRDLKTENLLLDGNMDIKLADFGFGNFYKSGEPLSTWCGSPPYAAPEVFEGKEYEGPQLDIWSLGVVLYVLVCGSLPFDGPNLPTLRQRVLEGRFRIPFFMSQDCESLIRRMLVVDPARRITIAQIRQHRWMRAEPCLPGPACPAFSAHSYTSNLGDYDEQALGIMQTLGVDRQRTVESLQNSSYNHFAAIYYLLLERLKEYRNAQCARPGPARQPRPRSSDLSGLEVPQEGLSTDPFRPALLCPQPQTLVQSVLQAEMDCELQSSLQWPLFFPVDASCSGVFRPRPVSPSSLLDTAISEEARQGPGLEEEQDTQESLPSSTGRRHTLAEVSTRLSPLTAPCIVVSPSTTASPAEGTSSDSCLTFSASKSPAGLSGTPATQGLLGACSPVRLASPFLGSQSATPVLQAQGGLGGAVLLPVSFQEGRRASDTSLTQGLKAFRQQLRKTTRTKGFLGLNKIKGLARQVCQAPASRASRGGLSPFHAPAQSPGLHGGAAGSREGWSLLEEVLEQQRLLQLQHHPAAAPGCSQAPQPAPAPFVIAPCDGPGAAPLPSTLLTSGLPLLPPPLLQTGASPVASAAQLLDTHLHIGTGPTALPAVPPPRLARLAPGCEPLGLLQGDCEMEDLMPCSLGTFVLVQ
Recorded Endpoint: IC50

Input line: Looking for the measured IC50 of Cc1cn(CCN2CCN(c3ccccc3-c3cc(C#N)cc(C(=O)NCCCN4CCCC4)c3)CC2)c2ccccc12 [LLY-507] , can you help?
Output line: > 20 µM

----------
biological target: hMARK2 (Homo sapiens, UniProt Q7KZI7)
Sequence (Q7KZI7 whole entry): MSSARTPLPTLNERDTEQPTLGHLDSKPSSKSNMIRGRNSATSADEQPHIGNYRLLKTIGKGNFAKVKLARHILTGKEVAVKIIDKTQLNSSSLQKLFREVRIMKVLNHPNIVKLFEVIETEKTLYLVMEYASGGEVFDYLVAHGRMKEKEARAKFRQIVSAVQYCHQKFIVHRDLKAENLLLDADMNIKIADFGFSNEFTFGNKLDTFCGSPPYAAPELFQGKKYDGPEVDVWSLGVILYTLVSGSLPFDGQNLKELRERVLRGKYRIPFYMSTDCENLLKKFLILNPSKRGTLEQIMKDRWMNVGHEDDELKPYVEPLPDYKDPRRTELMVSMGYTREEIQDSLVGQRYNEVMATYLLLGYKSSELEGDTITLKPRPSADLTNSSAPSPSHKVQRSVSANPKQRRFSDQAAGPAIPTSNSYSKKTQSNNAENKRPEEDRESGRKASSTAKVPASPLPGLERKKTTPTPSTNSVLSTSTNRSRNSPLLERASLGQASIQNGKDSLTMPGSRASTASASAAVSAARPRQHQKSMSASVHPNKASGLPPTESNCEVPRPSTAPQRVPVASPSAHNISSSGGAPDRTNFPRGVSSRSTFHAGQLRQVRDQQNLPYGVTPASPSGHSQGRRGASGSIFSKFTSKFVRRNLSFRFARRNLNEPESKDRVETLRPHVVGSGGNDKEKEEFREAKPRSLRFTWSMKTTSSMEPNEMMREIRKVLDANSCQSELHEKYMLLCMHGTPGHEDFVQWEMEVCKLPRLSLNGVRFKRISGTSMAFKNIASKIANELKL
Recorded Endpoint: IC50

Input line: Looking for the measured IC50 of Cc1cn(CCN2CCN(c3ccccc3-c3cc(C#N)cc(C(=O)NCCCN4CCCC4)c3)CC2)c2ccccc12 [LLY-507] , can you help?
Output line: > 20 µM

----------
Molecular target: hVDR (Homo sapiens)
Sequence (P11473 1-427): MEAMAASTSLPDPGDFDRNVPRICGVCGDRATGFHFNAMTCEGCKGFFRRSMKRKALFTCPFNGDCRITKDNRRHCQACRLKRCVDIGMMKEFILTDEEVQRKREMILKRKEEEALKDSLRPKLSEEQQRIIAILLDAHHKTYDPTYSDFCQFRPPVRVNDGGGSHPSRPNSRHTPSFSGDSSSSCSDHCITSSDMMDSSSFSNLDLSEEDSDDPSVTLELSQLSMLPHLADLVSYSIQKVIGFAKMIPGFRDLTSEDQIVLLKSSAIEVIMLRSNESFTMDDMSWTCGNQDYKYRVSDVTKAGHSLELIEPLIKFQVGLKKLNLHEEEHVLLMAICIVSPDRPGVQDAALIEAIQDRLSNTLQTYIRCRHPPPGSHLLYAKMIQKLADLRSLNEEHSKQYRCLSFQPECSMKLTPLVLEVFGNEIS
pIC50: −log10 of the molar value.
Recorded Endpoint: pIC50

Input line: Looking for the measured pIC50 of Cc1cn(CCN2CCN(c3ccccc3-c3cc(C#N)cc(C(=O)NCCCN4CCCC4)c3)CC2)c2ccccc12 [LLY-507] , can you help?
Output line: < 5.00

----------
target: hEGFR(G719S) (Homo sapiens, UniProt P00533, G719S); experiment: KINOMEscan
Sequence (P00533 25-1210 G719S): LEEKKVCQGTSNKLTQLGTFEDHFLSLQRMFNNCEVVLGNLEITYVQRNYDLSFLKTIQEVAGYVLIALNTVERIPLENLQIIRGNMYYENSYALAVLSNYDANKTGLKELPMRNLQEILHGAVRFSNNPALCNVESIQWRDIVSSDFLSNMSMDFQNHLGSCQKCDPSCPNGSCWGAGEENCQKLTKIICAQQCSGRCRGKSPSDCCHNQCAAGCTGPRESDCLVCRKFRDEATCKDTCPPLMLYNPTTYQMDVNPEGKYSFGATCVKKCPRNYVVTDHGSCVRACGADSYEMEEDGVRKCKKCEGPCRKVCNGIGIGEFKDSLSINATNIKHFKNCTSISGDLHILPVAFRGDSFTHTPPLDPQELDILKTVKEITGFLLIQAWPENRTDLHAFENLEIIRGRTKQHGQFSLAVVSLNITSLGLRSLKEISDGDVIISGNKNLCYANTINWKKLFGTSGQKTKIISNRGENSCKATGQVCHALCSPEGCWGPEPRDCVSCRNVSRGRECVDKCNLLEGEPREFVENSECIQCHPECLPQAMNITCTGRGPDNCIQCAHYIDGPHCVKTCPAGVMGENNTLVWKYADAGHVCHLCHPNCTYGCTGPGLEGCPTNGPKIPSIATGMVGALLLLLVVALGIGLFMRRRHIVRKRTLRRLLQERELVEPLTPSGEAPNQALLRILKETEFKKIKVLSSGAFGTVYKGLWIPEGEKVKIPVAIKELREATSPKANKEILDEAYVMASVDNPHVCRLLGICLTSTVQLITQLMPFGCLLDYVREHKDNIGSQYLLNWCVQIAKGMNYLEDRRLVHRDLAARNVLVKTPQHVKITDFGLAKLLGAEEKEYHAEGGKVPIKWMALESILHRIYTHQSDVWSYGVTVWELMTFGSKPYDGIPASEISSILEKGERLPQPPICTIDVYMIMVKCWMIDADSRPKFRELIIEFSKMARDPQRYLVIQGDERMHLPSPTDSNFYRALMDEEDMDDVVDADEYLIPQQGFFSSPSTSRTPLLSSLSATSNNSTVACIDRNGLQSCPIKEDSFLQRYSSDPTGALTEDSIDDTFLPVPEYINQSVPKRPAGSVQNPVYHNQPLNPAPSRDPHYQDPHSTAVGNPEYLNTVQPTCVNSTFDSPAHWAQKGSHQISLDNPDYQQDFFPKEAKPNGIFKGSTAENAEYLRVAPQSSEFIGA
Recorded Endpoint: IC50

Input line: Looking for the measured IC50 of Cc1cn(CCN2CCN(c3ccccc3-c3cc(C#N)cc(C(=O)NCCCN4CCCC4)c3)CC2)c2ccccc12 [LLY-507] , can you help?
Output line: > 20 µM

----------
Protein target, amino acids: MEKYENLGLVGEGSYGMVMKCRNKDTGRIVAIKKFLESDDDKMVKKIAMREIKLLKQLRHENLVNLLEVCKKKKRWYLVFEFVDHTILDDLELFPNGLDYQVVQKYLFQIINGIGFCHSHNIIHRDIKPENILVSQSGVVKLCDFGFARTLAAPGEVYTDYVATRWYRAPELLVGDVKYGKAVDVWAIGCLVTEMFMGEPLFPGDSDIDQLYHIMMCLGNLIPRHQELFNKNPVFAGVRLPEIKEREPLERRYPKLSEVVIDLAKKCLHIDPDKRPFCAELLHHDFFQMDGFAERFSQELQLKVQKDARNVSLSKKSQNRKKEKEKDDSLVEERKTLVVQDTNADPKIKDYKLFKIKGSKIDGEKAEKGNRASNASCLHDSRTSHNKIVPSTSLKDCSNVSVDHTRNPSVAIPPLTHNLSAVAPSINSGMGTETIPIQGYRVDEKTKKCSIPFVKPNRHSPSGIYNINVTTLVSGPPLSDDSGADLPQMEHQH
Recorded Endpoint: IC50

Input line: Looking for the measured IC50 of Cc1cn(CCN2CCN(c3ccccc3-c3cc(C#N)cc(C(=O)NCCCN4CCCC4)c3)CC2)c2ccccc12 , can you help?
Output line: > 20 µM

----------
target: hTTK (Homo sapiens)
Sequence (P33981 whole entry): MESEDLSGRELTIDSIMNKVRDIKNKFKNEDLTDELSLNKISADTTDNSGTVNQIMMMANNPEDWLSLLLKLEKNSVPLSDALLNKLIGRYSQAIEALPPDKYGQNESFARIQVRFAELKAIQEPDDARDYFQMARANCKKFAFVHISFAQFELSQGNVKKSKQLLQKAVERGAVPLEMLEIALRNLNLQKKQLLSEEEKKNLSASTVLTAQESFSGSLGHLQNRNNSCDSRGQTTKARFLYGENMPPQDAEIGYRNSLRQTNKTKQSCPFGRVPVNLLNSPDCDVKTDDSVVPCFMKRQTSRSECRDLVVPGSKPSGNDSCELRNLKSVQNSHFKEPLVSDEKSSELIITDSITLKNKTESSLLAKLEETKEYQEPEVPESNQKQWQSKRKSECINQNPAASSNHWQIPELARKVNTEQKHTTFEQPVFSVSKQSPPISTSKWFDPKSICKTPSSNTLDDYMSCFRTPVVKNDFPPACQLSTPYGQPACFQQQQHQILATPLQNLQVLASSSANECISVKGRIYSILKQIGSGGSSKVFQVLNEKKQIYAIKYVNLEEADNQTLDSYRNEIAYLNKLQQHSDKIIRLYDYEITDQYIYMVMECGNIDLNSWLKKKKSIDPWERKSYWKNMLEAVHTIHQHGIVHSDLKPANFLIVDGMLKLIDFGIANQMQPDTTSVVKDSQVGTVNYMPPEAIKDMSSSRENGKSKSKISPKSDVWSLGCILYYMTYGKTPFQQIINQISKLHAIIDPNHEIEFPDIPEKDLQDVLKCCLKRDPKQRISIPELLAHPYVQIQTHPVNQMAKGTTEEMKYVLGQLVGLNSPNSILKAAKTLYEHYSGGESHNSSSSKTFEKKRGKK
Recorded Endpoint: IC50

Input line: Looking for the measured IC50 of Cc1cn(CCN2CCN(c3ccccc3-c3cc(C#N)cc(C(=O)NCCCN4CCCC4)c3)CC2)c2ccccc12 , can you help?
Output line: > 20 µM

----------
molecular target: hMAP3K2 (Homo sapiens, UniProt Q9Y2U5); construct: purchased DiscoverX (KINOMEscan platform); assay: KINOMEscan; format: binding
pIC50: −log10 of the molar value.
Recorded Endpoint: pIC50

Input line: Looking for the measured pIC50 of Cc1cn(CCN2CCN(c3ccccc3-c3cc(C#N)cc(C(=O)NCCCN4CCCC4)c3)CC2)c2ccccc12 [LLY-507] , can you help?
Output line: < 4.70

----------
biological target: hMET(Y1235D) (Homo sapiens, UniProt P08581, Y1235D); experiment: KINOMEscan
pIC50: −log10 of the molar value.
Recorded Endpoint: pIC50

Input line: Identify the measured pIC50 of Cc1cn(CCN2CCN(c3ccccc3-c3cc(C#N)cc(C(=O)NCCCN4CCCC4)c3)CC2)c2ccccc12 for hMET(Y1235D) (Homo sapiens, UniProt P08581, Y1235D).
Output line: < 4.70

----------
biological target: hADCK3 (Homo sapiens, UniProt Q8NI60); construct: purchased DiscoverX; experiment: KINOMEscan; assay type: binding
pIC50: −log10 of the molar value.
Recorded Endpoint: pIC50

Input line: Looking for the measured pIC50 of Cc1cn(CCN2CCN(c3ccccc3-c3cc(C#N)cc(C(=O)NCCCN4CCCC4)c3)CC2)c2ccccc12 , can you help?
Output line: < 4.70

----------
target: hCAMK4 (Homo sapiens, UniProt Q16566)
pIC50: −log10 of the molar value.
Recorded Endpoint: pIC50

Input line: Identify the measured pIC50 of Cc1cn(CCN2CCN(c3ccccc3-c3cc(C#N)cc(C(=O)NCCCN4CCCC4)c3)CC2)c2ccccc12 [LLY-507] for hCAMK4 (Homo sapiens, UniProt Q16566).
Output line: < 4.70

----------
Target protein (sequence): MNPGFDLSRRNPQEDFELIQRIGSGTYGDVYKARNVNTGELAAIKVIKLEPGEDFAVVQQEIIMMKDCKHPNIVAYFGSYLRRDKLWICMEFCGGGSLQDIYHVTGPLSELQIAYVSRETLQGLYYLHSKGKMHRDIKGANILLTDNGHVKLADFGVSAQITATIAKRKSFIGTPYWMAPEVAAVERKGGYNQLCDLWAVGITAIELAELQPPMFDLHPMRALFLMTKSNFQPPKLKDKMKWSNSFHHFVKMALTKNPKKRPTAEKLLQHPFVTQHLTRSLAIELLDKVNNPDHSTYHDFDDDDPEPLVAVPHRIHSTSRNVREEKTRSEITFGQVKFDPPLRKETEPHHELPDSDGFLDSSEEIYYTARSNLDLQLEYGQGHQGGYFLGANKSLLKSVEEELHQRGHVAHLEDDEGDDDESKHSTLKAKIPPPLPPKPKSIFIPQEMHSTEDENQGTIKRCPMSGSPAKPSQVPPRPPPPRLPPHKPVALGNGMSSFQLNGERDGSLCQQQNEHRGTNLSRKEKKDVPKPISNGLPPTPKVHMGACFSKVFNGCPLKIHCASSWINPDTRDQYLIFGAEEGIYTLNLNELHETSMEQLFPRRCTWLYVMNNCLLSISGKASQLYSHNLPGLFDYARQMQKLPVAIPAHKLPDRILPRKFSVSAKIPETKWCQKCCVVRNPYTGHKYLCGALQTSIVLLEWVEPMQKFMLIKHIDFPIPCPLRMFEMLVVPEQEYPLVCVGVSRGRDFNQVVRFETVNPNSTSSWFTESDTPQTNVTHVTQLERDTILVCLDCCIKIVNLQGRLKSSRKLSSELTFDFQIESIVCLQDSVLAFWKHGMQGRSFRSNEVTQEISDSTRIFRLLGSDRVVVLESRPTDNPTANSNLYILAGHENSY
Recorded Endpoint: IC50

Input line: Looking for the measured IC50 of Cc1cn(CCN2CCN(c3ccccc3-c3cc(C#N)cc(C(=O)NCCCN4CCCC4)c3)CC2)c2ccccc12 , can you help?
Output line: > 20 µM

----------
biological target: hABL1 (Homo sapiens, UniProt P00519)
Sequence (P00519 whole entry): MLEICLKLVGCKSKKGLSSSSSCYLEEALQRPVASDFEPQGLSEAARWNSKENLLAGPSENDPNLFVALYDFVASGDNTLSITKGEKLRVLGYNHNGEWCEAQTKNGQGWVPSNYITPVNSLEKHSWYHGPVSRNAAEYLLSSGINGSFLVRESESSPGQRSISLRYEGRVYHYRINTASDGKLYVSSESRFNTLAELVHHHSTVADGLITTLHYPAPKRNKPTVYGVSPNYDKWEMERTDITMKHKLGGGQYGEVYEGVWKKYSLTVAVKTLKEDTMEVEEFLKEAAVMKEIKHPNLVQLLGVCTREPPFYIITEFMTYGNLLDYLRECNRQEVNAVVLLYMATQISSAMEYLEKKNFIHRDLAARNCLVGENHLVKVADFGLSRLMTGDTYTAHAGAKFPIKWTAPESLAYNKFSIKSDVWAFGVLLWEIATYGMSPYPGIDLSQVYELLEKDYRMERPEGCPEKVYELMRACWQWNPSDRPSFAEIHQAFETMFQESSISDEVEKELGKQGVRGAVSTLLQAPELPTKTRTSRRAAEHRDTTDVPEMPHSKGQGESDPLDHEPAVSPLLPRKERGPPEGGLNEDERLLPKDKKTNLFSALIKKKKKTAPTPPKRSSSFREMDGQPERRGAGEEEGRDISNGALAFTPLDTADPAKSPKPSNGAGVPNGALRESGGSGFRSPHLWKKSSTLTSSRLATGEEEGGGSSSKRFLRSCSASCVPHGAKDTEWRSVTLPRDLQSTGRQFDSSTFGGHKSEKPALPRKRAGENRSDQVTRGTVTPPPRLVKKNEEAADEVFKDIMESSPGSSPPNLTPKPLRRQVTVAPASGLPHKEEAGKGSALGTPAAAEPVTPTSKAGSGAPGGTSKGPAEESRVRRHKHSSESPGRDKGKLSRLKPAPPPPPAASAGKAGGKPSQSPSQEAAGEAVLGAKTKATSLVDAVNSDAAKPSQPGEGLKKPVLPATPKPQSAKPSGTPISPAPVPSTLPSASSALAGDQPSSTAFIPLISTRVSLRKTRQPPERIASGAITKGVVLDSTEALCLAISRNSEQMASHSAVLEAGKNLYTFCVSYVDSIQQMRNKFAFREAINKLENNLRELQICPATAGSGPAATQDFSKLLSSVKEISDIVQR
Recorded Endpoint: IC50

Input line: Identify the measured IC50 of Cc1cn(CCN2CCN(c3ccccc3-c3cc(C#N)cc(C(=O)NCCCN4CCCC4)c3)CC2)c2ccccc12 [LLY-507] for hABL1 (Homo sapiens, UniProt P00519).
Output line: > 20 µM

----------
Target: hRIPK5 (Homo sapiens)
Sequence (Q6XUX3 1-929): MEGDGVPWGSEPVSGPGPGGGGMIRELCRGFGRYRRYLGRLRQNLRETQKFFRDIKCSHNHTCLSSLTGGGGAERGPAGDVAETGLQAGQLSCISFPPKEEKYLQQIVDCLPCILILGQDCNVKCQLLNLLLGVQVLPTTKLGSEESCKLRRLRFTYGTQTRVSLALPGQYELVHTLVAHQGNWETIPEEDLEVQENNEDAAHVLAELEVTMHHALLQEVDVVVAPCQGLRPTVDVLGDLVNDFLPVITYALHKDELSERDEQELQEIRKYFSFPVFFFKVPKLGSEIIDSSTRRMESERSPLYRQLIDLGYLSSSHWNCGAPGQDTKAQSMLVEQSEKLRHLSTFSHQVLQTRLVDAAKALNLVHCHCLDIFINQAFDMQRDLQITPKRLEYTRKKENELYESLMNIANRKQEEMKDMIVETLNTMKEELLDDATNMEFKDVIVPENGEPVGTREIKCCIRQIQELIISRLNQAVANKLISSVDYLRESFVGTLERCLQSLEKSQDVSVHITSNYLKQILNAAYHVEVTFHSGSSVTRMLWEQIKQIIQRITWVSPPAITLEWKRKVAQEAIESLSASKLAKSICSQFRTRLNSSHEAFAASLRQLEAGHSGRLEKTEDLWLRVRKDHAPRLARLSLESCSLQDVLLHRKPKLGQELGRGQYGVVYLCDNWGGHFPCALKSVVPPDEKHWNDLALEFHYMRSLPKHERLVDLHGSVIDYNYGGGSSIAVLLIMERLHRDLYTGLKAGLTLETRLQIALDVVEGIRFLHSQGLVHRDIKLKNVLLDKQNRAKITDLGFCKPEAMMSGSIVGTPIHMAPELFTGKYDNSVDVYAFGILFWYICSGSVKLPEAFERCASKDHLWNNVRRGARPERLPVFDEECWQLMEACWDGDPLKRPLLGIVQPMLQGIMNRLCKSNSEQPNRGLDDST
Recorded Endpoint: IC50

Input line: Looking for the measured IC50 of Cc1cn(CCN2CCN(c3ccccc3-c3cc(C#N)cc(C(=O)NCCCN4CCCC4)c3)CC2)c2ccccc12 , can you help?
Output line: > 20 µM
